Test system: CCK-81 (Colorectal Carcinoma);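 note: after 72 h of two-drug dosing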
MEASUREMENT NOTES: Bliss excess, mean over the matrix (fraction); higher = more synergy
What Bliss excess was measured for each of the following?
Give bare numbers.

Field: example entries. Status: answers known.
>>> value("C[C@@H](Oc1cc(-c2cnn(C3CCNCC3)c2)cnc1N)c1c(Cl)ccc(F)c1Cl [Crizotinib] + CC1=C(C(=CC=C1)Cl)NC(=O)C2=CN=C(S2)NC3=CC(=NC(=N3)C)N4CCN(CC4)CCO [Dasatinib] (first compound max 10 µM, 7x7, partner max 2 µM)")
0.0191
>>> value("Cc1cc2ncnn2cc1Nc1ncc2c(n1)n(C1CCOCC1)c(=O)n2C [AZD7648] + O=C(c1cc(Cc2n[nH]c(=O)c3ccccc23)ccc1F)N1CCN(C(=O)C2CC2)CC1 [Olaparib] (first compound max 10 µM, 7x7, partner max 10 µM)")
-0.0546
>>> value("CS(=O)(=O)CCNCc1ccc(-c2ccc3ncnc(Nc4ccc(OCc5cccc(F)c5)c(Cl)c4)c3c2)o1 [Lapatinib] + C[C@@H](Oc1cc(-c2cnn(C3CCNCC3)c2)cnc1N)c1c(Cl)ccc(F)c1Cl [Crizotinib] (first compound max 10 µM, 7x7, partner max 10 µM)")
-0.0255

Field: next compound
q: May I ask what Bliss excess has been recorded for Cc1c2c(nn1C)CSCc1cc(n(C)n1)CSc1cc(c3ccccc3c1)OCCCc1c(C(=O)O)n(C)c3c-2c(Cl)ccc13 [AZD5991] + CS(=O)(=O)CCNCc1ccc(-c2ccc3ncnc(Nc4ccc(OCc5cccc(F)c5)c(Cl)c4)c3c2)o1 [Lapatinib] (first compound max 1 µM, 7x7, partner max 10 µM) ?
a: 0.055
